# Test system: PU.1 dependent gene expression
# ASSAY_OVERVIEW: RT-qPCR of mRNA levels in BV2 PU.1-Luciferase cells (validation round 3)
# Assay type: cell-based, mouse
# PROTOCOL_CONDITIONS: 2-day treatment
MEASURED_METRIC: mRNA levels Spi1

Please review the entries below; each comes with its answer.
COMPOUND	ASSAY_VALUE
Cc1ccc(C(=O)Nc2nnc(SCc3cc(=O)c4c(C)ccc(C)c4[nH]3)s2)cc1	0.926 multiples of 1×
CC(C)N=C(N)c1ccc2nc(-c3ccc(OCc4cccc(COc5ccc(-c6nc7ccc(C(N)=NC(C)C)cc7[nH]6)cc5)c4F)cc3)[nH]c2c1 [DB2313, reference compound]	0.820 multiples of 1×

Measured mRNA levels Spi1, CCOc1ccc(S(=O)(=O)Nc2ccc3c(c2)c(C(C)=O)c(C)n3S(=O)(=O)c2ccc(OCC)cc2)cc1 : 0.982 multiples of 1×

Measured mRNA levels Spi1, CCCC(=O)Nc1nnc(SCc2cc(=O)c3ccc(C)cc3[nH]2)s1 : 1.046 multiples of 1×

Measured mRNA levels Spi1, CC(C)c1ccc(C2Sc3ccccc3NC3=C2C(=O)c2ccccc23)cc1 (stereo not shown) : 0.831 multiples of 1×

Measured mRNA levels Spi1, CCOc1ccc(-c2nc(CSCC(=O)NCc3ccc(C)cc3)c(C)o2)cc1 : 1.251 multiples of 1×

Measured mRNA levels Spi1, Cc1ccc(C)c(N2CCN(C(=O)C3CCN(c4nc(-c5ccc(C(C)C)cc5)no4)CC3)CC2)c1 : 1.133 multiples of 1×

###

# MEASURED_ON: PU.1 (Mus musculus, UniProt P17433)
# Construct: endogenous in cells
# ASSAY_OVERVIEW: Luciferase assay (luminescence) in BV2 PU.1-Luciferase reporter cells
# PROTOCOL_CONDITIONS: luminescence reduction in BV2 PU.1-Luciferase cells, concentration-response, Hill's equation
MEASURED_METRIC: pIC50
Conceptually, pIC50 converts a concentration in mol/L into minus its log10.

MOLECULE	pIC50
N#CC(=CNc1ccc2c(c1)OCCO2)c1nc2ccccc2[nH]1	5.83
CCOC(=O)Cn1c(=O)n(C2CCCCC2)c2nc(-c3cccc(F)c3)nc(C(N)=O)c21	6.87
CCOC(=O)c1ccc(NS(=O)(=O)c2cc(Br)cc3c2N(C(C)=O)C(C)C3)cc1 (centres unmarked)	5.76

Given the molecule Cc1ccc(C(=O)Nc2nnc(SCc3cc(=O)c4c(C)ccc(C)c4[nH]3)s2)cc1 and test system PU.1 (Mus musculus, UniProt P17433), the measured pIC50 is 5.09

Given the molecule Cc1nc(-c2ccc(S(=O)(=O)Nc3ccc(C)c(N(C)C)c3)cc2)co1 and test system PU.1 (Mus musculus, UniProt P17433), the measured pIC50 is 5.64

Given the molecule CCOc1ccc(-c2nc(CSCC(=O)NCc3ccc(Cl)cc3)c(C)o2)cc1 and test system PU.1 (Mus musculus, UniProt P17433), the measured pIC50 is 6.13

Given the molecule CCCCN(c1ccccc1)c1ncnc2c1cnn2-c1ccc(Cl)cc1 and test system PU.1 (Mus musculus, UniProt P17433), the measured pIC50 is 6.01

Given the molecule Cc1ccc(-c2nc3cc(C(C)C)ccc3o2)cc1NC(=O)c1cc([N+](=O)[O-])ccc1N1CCOCC1 and test system PU.1 (Mus musculus, UniProt P17433), the measured pIC50 is 5.61

Given the molecule Cn1nccc1C(=O)NCc1ccc2c(c1)CCN2C(=O)c1ccc(F)cc1 and test system PU.1 (Mus musculus, UniProt P17433), the measured pIC50 is 5.32

Given the molecule Cc1c(Cl)ccc2sc(N3CCN(C(=O)CCS(=O)(=O)c4ccc(F)cc4)CC3)nc12 and test system PU.1 (Mus musculus, UniProt P17433), the measured pIC50 is 5.88

Given the molecule Cc1ccccc1NC(=O)C(C)Sc1nc2ccccc2c(=O)n1C (centres unmarked) and test system PU.1 (Mus musculus, UniProt P17433), the measured pIC50 is 6.32

Given the molecule CSc1ccc(C=Cc2nc3ccccc3n2S(=O)(=O)c2ccc(F)c(C)c2)cc1 and test system PU.1 (Mus musculus, UniProt P17433), the measured pIC50 is 6.29

Given the molecule CCn1c(=O)c2cc(C(=O)Nc3cc(OC)c(OC)c(OC)c3)sc2c2ccccc21 and test system PU.1 (Mus musculus, UniProt P17433), the measured pIC50 is 5.64

Given the molecule CC(=O)c1c(C)oc2ccc(N(C(=O)Oc3ccccc3)S(=O)(=O)c3ccc(C(C)(C)C)cc3)cc12 and test system PU.1 (Mus musculus, UniProt P17433), the measured pIC50 is 5.64

Given the molecule CC(C)c1ccc(NC(=O)Cn2c(=O)oc3cc(S(=O)(=O)N4CCCC4)ccc32)cc1 and test system PU.1 (Mus musculus, UniProt P17433), the measured pIC50 is 5.59

Given the molecule COc1ccc(NS(=O)(=O)c2ccc3c(c2)CCCN3C(=O)C2CCC2)cc1OC and test system PU.1 (Mus musculus, UniProt P17433), the measured pIC50 is 5.85

Given the molecule Cc1ccc(C)c(N2CCN(C(=O)C3CCN(c4nc(-c5ccc(C(C)C)cc5)no4)CC3)CC2)c1 and test system PU.1 (Mus musculus, UniProt P17433), the measured pIC50 is 5.87

###

# MEASURED_ON: PU.1 (Mus musculus, UniProt P17433)
# Construct: endogenous in cells
# ASSAY_OVERVIEW: Luciferase assay (luminescence) in BV2 PU.1-Luciferase reporter cells
# PROTOCOL_CONDITIONS: luminescence reduction in BV2 PU.1-Luciferase cells, concentration-response, Hill's equation
MEASURED_METRIC: IC50 (nM)
Lab book: enter the figure in nM, no units written.

COMPOUND	IC50 (nM)
COc1cc(NS(=O)(=O)c2ccc3c(c2)CCN3S(C)(=O)=O)cc(OC)c1	3540
C[C@@H]1C[C@H]2[C@@H]3CCC4=CC(=O)C=C[C@]4(C)[C@@]3(Cl)[C@@H](O)C[C@]2(C)[C@@]1(O)C(=O)CCl [Mometasone, reference compound]	3
CCOc1ccc(S(=O)(=O)NCc2ccncc2)cc1C(C)C	38
CCOc1ccc(-c2nc(CSCC(=O)NCc3ccc(C)cc3)c(C)o2)cc1	380

Given the compound COc1cc(NS(=O)(=O)c2ccc3c(c2)CC(C)N3C(=O)C2CCC2)cc(OC)c1OC (centres unmarked) and test system PU.1 (Mus musculus, UniProt P17433), the measured IC50 is 338

###

# Test system: PU.1 dependent gene expression
# ASSAY_OVERVIEW: RT-qPCR of mRNA levels in BV2 PU.1-Luciferase cells (validation round 3)
# Format: cell-based, mouse
# PROTOCOL_CONDITIONS: 2-day treatment
# mRNA levels IL1β per entry

Please review the entries below; each comes with its answer.
COMPOUND	MEASURED_ON	mRNA levels IL1β
CC(C)N=C(N)c1ccc2nc(-c3ccc(OCc4cccc(COc5ccc(-c6nc7ccc(C(N)=NC(C)C)cc7[nH]6)cc5)c4F)cc3)[nH]c2c1 [DB2313, reference compound]	PU.1 dependent gene expression	0.460 multiples of 1×
CCCCN(C)C(=O)C1CCCN(c2ncnc3onc(C)c23)C1 (centres unmarked)	PU.1 dependent gene expression	0.287 multiples of 1×
Cc1ccc(C)c(N2CCN(C(=O)C3CCN(c4nc(-c5ccc(C(C)C)cc5)no4)CC3)CC2)c1	PU.1 dependent gene expression	1.082 multiples of 1×
CCc1ccc(CNC(=O)C2CCCN(c3nn4cc(-c5ccc(F)cc5)nc4s3)C2)cc1 (centres unmarked)	PU.1 dependent gene expression	0.954 multiples of 1×
O=S(=O)(NCc1ccncc1)c1ccc(C2CCCCC2)cc1	PU.1 dependent gene expression	0.418 multiples of 1×

Given the compound Cc1ccc(C(=O)Nc2nnc(SCc3cc(=O)c4c(C)ccc(C)c4[nH]3)s2)cc1 and test system PU.1 dependent gene expression, the measured mRNA levels IL1β is 0.887 multiples of 1×

Given the compound COc1cccc2cc(C(=O)Nc3ccc(N4CCNCC4)cc3)c(=O)oc12 and test system PU.1 dependent gene expression, the measured mRNA levels IL1β is 1.347 multiples of 1×

Given the compound Cc1ccccc1NC(=O)C(C)Sc1nc2ccccc2c(=O)n1C (centres unmarked) and test system PU.1 dependent gene expression, the measured mRNA levels IL1β is 0.866 multiples of 1×

Given the compound Cc1c(Cl)ccc2sc(N3CCN(C(=O)CCS(=O)(=O)c4ccc(F)cc4)CC3)nc12 and test system PU.1 dependent gene expression, the measured mRNA levels IL1β is 0.821 multiples of 1×

Given the compound C[C@@H]1C[C@H]2[C@@H]3CCC4=CC(=O)C=C[C@]4(C)[C@@]3(Cl)[C@@H](O)C[C@]2(C)[C@@]1(O)C(=O)CCl [Mometasone, reference compound] and test system PU.1 dependent gene expression, the measured mRNA levels IL1β is 0.531 multiples of 1×

Given the compound CC(=NCCCn1ccnc1)c1c(C(F)(F)F)[nH]n(-c2nc3ccccc3s2)c1=O and test system PU.1 dependent gene expression, the measured mRNA levels IL1β is 0.986 multiples of 1×
